Reference source: patent EP0922458A1

System: ZR-75-1
Assay Summary: Single dose cytotoxicity (sulphorhodamine protein assay)
Type: cell-based, human
Applied Conditions: Homo sapiens, ZR-75-1 (breast), 1 hour drug, without BG
Measure Name: IC50
Please answer in the form of a number followed by its unit of measurement.

Problem: Find the measured IC50 of Cn1nnc2c(C(N)=O)ncn2c1=O [temozolomide] and report it.
Result: 32 µM

Problem: Find the measured IC50 of O=NN(CCCl)C(=O)NC1CCCCC1 [CCNU, lomustine] and report it.
Result: 12 µM
